Measured koff of individual entries
SYSTEM TESTED: T1, human LAG3-Fc (R&D Systems #2319-L3) (human, UniProt P18627 23-450)
T1 construct: Bought protein; also called Human LAG3 (Biacore)
T1 sequence: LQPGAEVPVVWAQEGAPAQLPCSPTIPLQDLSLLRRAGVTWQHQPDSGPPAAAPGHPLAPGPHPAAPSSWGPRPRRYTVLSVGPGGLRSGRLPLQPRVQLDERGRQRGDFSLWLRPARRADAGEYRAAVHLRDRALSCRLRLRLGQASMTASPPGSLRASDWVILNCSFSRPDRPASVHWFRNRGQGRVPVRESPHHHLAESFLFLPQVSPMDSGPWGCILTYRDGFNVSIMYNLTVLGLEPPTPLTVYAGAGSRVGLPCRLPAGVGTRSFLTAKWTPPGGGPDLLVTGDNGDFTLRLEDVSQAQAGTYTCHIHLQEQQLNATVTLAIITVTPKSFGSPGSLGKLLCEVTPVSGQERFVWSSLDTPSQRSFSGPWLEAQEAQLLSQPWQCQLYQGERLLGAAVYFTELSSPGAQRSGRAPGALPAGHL
PROTOCOL DESCRIPTION: SPR (Biacore), antibody captured by anti-Flag, LAG3-Fc as analyte, 25 C
Number only, in s⁻¹; omit the unit.

SRP1627-A11 (scFv, V domains shown) VH: QVQLVQSGAEVKKPGSSVKVSCKASGFNINDYFMHWVRQAPGQGLEWIARIDPWNGDTEYAPKFQGRVTITADESTSTAYMELSSLRSEDTAVYYCGMSDALDYWGQGTLVTVSS VL: DVVMTQSPLSLPVTLGQPASISCKSSQSLLDSDGKTYLNWFQQRPGQSPRRLIYLVSKLDSGVPDRFSGSGSGTDFTLKISRVEAEDVGVYYCWHGINFPQTFGQGTKVEIK: 0.00422
SRP1449-B03 (scFv, V domains shown) VH: QVQLVESGGGVVQPGRSLRLSCAASGFTFSSYGMHWVRQAPGKGLEWVAAIWYDASYKYYADSVKGRFTISRDNSKNTLYLQMNSLRAEDTAVYYCAREWAVASWDYALDVWGQGTTVTVSS VL: EIVLTQSPGTMSLSPGERATLSCRASQSVSSSYLAWYQQKPGQAPRLLIYGASSRATGIPDRFSGSGSGTDFTLTISRLEPEDFAVYYCQQYDRSPLTFGPGTKVDIK: 0.000302
SRP1627-A02 (scFv, V domains shown) VH: QVQLVQSGAEVKKPGSSVKVSCKASGFNINDYFMHWVRQAPGQGLEWIARIDPWNGDTEYAPKFQGRVTITADESTSTAYMELSSLRSEDTAVYYCGMSDALDYWGQGTLVTVSS VL: DVVMTQSPLSLPVTLGQPASISCKSSQSLLDSDGKTYLNWFQQRPGQSPRRLIYLVSKLDSGVPDRFSGSGSGTDFTLKISRVEAEDVGVYYCSHGNPVPQTFGQGTKVEIK: 0.071

Now, please, on to the next binder.
Requested read-out: koff. Entry: SRP1627-B01 (scFv, V domains shown) VH: QVQLVQSGAEVKKPGSSVKVSCKASGFNITDLYMHWVRQAPGQGLEWIARIDPWNGDTEYAPKFQGRATITADESTSTAYMELSSLRSEDTAVYYCIASEMVDYWGQGTLVTVSS VL: DVVMTQSPLSLPVTLGQPASISCKSSQSLLDSDGKTYLNWFQQRPGQSPRRLIYLVSKLDSGVPDRFSGSGSGTDFTLKISRVEAEDVGVYYCSTYSHFPQTFGQGTKVEIK 0.0152

Data provenance is patent US20200079850A1.
